- assayed_system: recombinant Asp f2 (Aspergillus fumigatus, UniProt P79017)
- Construct: region fused to Asp f2 residues 32-310 (codon optimized for expression in E. coli); Trx-SMT3 N-terminal linker (thioredoxin, His6 tags, SMT3) (N, cleaved yes); made in house; host or cells: Escherichia coli
- Sequence (P79017 32-310): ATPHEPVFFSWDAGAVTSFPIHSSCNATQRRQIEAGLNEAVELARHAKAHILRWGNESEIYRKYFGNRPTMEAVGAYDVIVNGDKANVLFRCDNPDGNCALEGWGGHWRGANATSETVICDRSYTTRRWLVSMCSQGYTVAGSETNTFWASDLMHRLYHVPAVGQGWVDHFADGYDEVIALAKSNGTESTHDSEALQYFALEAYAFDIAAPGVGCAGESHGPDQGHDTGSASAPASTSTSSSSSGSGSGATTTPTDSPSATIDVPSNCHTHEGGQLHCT
- Format: biochemical, A. fumigatus
- measurement_context: 50 μM inhibitor, FluHSA2 substrate
- Method: A novel bead-based assay was developed for detecting Asp f2 proteolytic activity. […] Cyanogen bromide (CNBr)-activated sepharose beads were swelled in ice-cold HCl (1 mM). […] Diethylpyrocarbonate (DEPC) derivatization of histidines results in the chemical modification of histidines in proteins and is used to study the importance of histidyl residues in enzymes. […] Samples were then incubated with 10 μM of FluHSA2 for 16 hours at 22° C. and fluorescence was measured as described above. […]
Non-standard residues stand in square brackets, D forms with d. Residues, ends and D or L forms follow the SMILES beside them. *: point of attachment. Sta = CC(C)C[C@H](N)[C@@H](O)CC(=O)O; Isovaleryl = CC(C)CC(=O)*
quantity_name: effect of protease inhibitors on proteolytic activity of recombinant Asp f2

Known effect of protease inhibitors on proteolytic activity of recombinant Asp f2 results, listed for orientation:
molecule	value_observed
c1ccc(CN(CCN(Cc2ccccn2)Cc2ccccn2)Cc2ccccn2)nc1 [TPEN]	suppressed
NC(=O)CI [IAA, iodoacetamide]	did not inhibit
CC(C)CC(=O)N[C@H](C(=O)N[C@H](C(=O)N[C@@H](CC(C)C)[C@@H](O)CC(=O)N[C@@H](C)C(=O)N[C@@H](CC(C)C)[C@@H](O)CC(=O)O)C(C)C)C(C)C [pepstatin A] (Isovaleryl-VV[Sta]A[Sta]-OH)	did not inhibit
O=S(=O)(F)Cc1ccccc1 [PMSF, phenylmethanesulfonylfluoride]	did not inhibit
O=C(O)CN(CCN(CC(=O)O)CC(=O)O)CC(=O)O [EDTA, ethylenediaminetetraacetic acid]	suppressed

Give recombinant Asp f2 (Aspergillus fumigatus, UniProt P79017) effect of protease inhibitors on proteolytic activity of recombinant Asp f2 for the following molecule: c1cnc2c(c1)ccc1cccnc12 [1-10-phenanthroline]
suppressed

###

- assayed_system: native Asp f2 (Aspergillus fumigatus, UniProt P79017)
- Construct: beads were incubated with native or recombinant Asp f2; endogenous in cells; host or cells: Aspergillus fumigatus (preparation of the native protein not described for this assay)
- Format: biochemical, A. fumigatus
- measurement_context: 50 μM inhibitor, FluHSA2 substrate
Non-standard residues stand in square brackets, D forms with d. Residues, ends and D or L forms follow the SMILES beside them. *: point of attachment. Sta = CC(C)C[C@H](N)[C@@H](O)CC(=O)O; Isovaleryl = CC(C)CC(=O)*
quantity_name: effect of protease inhibitors on proteolytic activity of native Asp f2

compound	value_observed
O=C(O)CN(CCN(CC(=O)O)CC(=O)O)CC(=O)O	suppressed
NC(=O)CI [IAA, iodoacetamide]	did not inhibit
c1cnc2c(c1)ccc1cccnc12	suppressed
O=S(=O)(F)Cc1ccccc1 [PMSF, phenylmethanesulfonylfluoride]	did not inhibit

Identify the reported effect of protease inhibitors on proteolytic activity of native Asp f2 for the following entry. `c1ccc(CN(CCN(Cc2ccccn2)Cc2ccccn2)Cc2ccccn2)nc1`
suppressed

Provide effect of protease inhibitors on proteolytic activity of native Asp f2 value for the following compound: CC(C)CC(=O)N[C@H](C(=O)N[C@H](C(=O)N[C@@H](CC(C)C)[C@@H](O)CC(=O)N[C@@H](C)C(=O)N[C@@H](CC(C)C)[C@@H](O)CC(=O)O)C(C)C)C(C)C [pepstatin A] (Isovaleryl-VV[Sta]A[Sta]-OH)
did not inhibit

Just for reference, patent US11726087B2 is where these values come from.
